# method-description: qHTS Assay for Modulators of miRNAs and/or Inhibitors of miR-21; also: potency is read from the fitted curve at half-maximal effect; nearly all actives have a fitted effect of over 55% in size
# test-parameters: HeLa miR-21-FLuc reporter, luciferase luminescence, 48 h; actives lower the signal
The campaign covered roughly 340,000 compounds. About 3,300 (0.97%) were called active. About 9% were inconclusive and are not listed. The list shows a part of the results.
Readings of Potency for the listed compounds

Sample answers from the record:
CCc1cc2cc(C(=O)Nc3ccc(F)cc3)sc2s1 = 1.65 µM (active)
Cc1nn2c(N)c(C#N)cnc2c1-c1ccccc1 = 16.5 µM (active)
CCCC(=O)N(CCN1CCOCC1)c1nc2cc(C)c(C)cc2s1 = 2.33 µM (active)
Cc1ccc(Nc2nc(N)nc(CSC(=S)N3CCOCC3)n2)c(C)c1 = 10.4 µM (active)
CC(=O)Nc1ccc(C(=O)/C=C/c2ccc[nH]2)cc1 = 13.1 µM (active)
COc1cccc(/C=N/n2c(=O)[nH]c3ccccc32)c1OC = 8.26 µM (active)
CCN(C(=O)c1cc2c(=O)n3ccccc3nc2n1C)C1CCCCC1 = 11.7 µM (active)
CCCCOc1ccc(CSc2nncn2N)cc1 = 14.7 µM (active)
COc1ccc(NC(=O)CSc2nc(SC)ns2)cc1 = 6.56 µM (active)
COC(=O)CCc1sc(Nc2ccccc2)nc1-c1ccc(OC)cc1 = 16.5 µM (active)

query: Consider the compound "C=CCn1c2ccccc2c(=O)c2cc(C#CC3(O)CCCCC3)ccc21" and give its measured Potency.
result: 0.414 µM (active)

query: Also, "COc1ccc(NC(=O)c2cc(F)cc(F)c2)cc1Cl" please.
result: 9.27 µM (active)

query: What would you report for CCOC(=O)C1CCCN(C(=O)c2ccc(NC(=O)c3nsc4ccccc34)cc2)C1 (stereo not drawn) ?
result: 3.69 µM (active)

query: And then "O=C(Nc1ccccc1)Nc1ccc2ccccc2c1" , what is it?
result: 2.93 µM (active)

query: Lookup "COCCNC(=O)c1ccc2c(c1)ncn2-c1ccc(F)c(F)c1"
result: 16.5 µM (active)

query: Try this compound too: "CCCC(=O)Nc1ccc2c(c1)Cc1ccccc1-2"
result: 1.85 µM (active)

query: Moving on to the next compound: "CCn1c(C)nc2cc(C(=O)NNC(=S)Nc3ccccc3)ccc21"
result: 0.927 µM (active)

====

Recorded Potency, one value per entry.
# method-description: qHTS Assay for Modulators of miRNAs and/or Inhibitors of miR-21; also: potency is read from the fitted curve at half-maximal effect; nearly all actives have a fitted effect of over 55% in size
# test-parameters: HeLa miR-21-FLuc reporter, luciferase luminescence, 48 h; actives lower the signal
Screen size: about 340,000 compounds; about 3,300 (0.97%) were called active. About 9% were inconclusive and are not listed. The list shows a part of the results.

Solved entries (count: 4):
Cc1ccc(NC(=O)c2cc3ccccc3oc2=N)cc1 = 73.6 nM (active)
COc1cc(O)sc1C=Nc1ccc(Cl)cc1 = 7360 nM (active)
N=c1oc2cc(O)ccc2cc1C(=O)Nc1nc2ccccc2s1 = 1040 nM (active)
COc1cc(SC)ccc1C(=O)Nc1ccc2c(c1)CCC2 = 1310 nM (active)

query: Suppose we examine the compound "Cc1ccc(Sc2ncccc2COC(=O)NC(C)C)cc1" ; what Potency value has been reported?
result: 16500 nM (active)

query: Now the same for "COc1cc(SC)ccc1C(=O)Nc1ncc(Cl)cc1Cl"
result: 1850 nM (active)

query: Same lookup for "O=C1NC(=S)N/C1=C\c1ccc(N2CCOCC2)cc1" , please.
result: 13100 nM (active)

query: // repeat for "Cc1cc(C)c(C#N)c(SCc2nnc(-c3ccccc3[N+](=O)[O-])o2)n1" and report
result: 3690 nM (active)

====

Each entry below carries its recorded Potency.
# method-description: qHTS Assay for Modulators of miRNAs and/or Inhibitors of miR-21; also: potency is read from the fitted curve at half-maximal effect; nearly all actives have a fitted effect of over 55% in size
# test-parameters: HeLa miR-21-FLuc reporter, luciferase luminescence, 48 h; actives lower the signal
Hit rate of the full screen: of about 340,000 compounds, about 3,300 (0.97%) were called active. Inconclusive results (about 9%) are left out. The list shows a part of the results.

C/C(=C\C(=O)c1ccc(C)cc1)Nc1cccc(O)c1 = 3.29 µM (active)
O=C(Cc1noc2ccccc12)Nc1ccccn1 = 14.7 µM (active)
COc1ccc(-c2cc3cc(OC)c(OC)cc3c(C)n2)cc1 = 7.36 µM (active)
COc1ccccc1/C=C/C=N/n1c(-c2ccccn2)n[nH]c1=S = 8.26 µM (active)
Brc1ccc(-c2cn3cc(Cc4ccccc4)sc3n2)cc1 = 0.329 µM (active)

query: Give the measured Potency of Cc1ccc(Cn2nnc3c(=O)[nH]c(C4CCCN(S(=O)(=O)c5ccccc5)C4)nc32)cc1 (configuration not stated) .
result: 18.5 µM (active)

query: Try the compound "Cc1cccc(NC(=O)Cc2noc3ccccc23)c1"
result: 5.85 µM (active)

query: Quick one: "O=C(NCCSc1ccccc1)c1ccccc1Cl"
result: 1.65 µM (active)

query: "O=C(Nc1ccc2c(c1)CCC2)c1cccc(F)c1" ?
result: 4.14 µM (active)

query: What do we get for "COc1ccc(NC(=O)c2ccc(Br)o2)cc1" ?
result: 4.14 µM (active)

query: Check "COc1ccc(NC(=S)NC(=O)c2ccc(Br)o2)cc1" too.
result: 3.29 µM (active)

query: Would you mind doing "Nc1nnc(COc2ccc(Br)cc2Br)s1" as well?
result: 5.21 µM (active)

====

# method-description: qHTS Assay for Modulators of miRNAs and/or Inhibitors of miR-21; also: potency is read from the fitted curve at half-maximal effect; nearly all actives have a fitted effect of over 55% in size
# test-parameters: HeLa miR-21-FLuc reporter, luciferase luminescence, 48 h; actives lower the signal
Among all 340,000 compounds or so, about 3,300 (0.97%) were called active. Roughly 9% stayed inconclusive and do not appear here. The list shows a part of the results.
measurement-name: Potency

Worked examples follow.
CC1CCC/C(=C\Nc2ccc(C(=O)O)cc2)C1=O (stereo unspecified) = 0.585 µM (active)
O=C(Cc1ccccc1F)Nc1ccc(SC(F)F)cc1 = 2.07 µM (active)
COc1ccc(OCc2cc(C(=O)N3CCCC(OC)C3)no2)c2ccccc12 (stereo unspecified) = 16.5 µM (active)
CCNc1nc(N)nc(Oc2ccc(C(=O)OC)cc2)n1 = 8.26 µM (active)
O=c1c2ccccc2nnn1COc1cccc2ccccc12 = 14.7 µM (active)
COc1ccc(NC(=O)c2ccc3nc[nH]c3c2)cc1 = 7.36 µM (active)
CC(=O)c1ccc(N=Nc2ccc(N(C)C)cc2)cc1 = 0.293 µM (active)
COc1cc(OC)c(C(=O)Nc2ccc(N(C)C)cc2)cc1OC = 8.26 µM (active)
Nc1c(-c2ccc(Cl)cc2)cnc2c(-c3ccc(F)cc3)cnn12 = 0.585 µM (active)
Cc1cc(C)cc(C(=O)NC(=S)Nc2ccc3c(c2)OCCO3)c1 = 7.36 µM (active)

query: What does the record list as Potency for "COc1cccc2cc(C(=O)N3CCc4ccccc4C3)c(=O)oc12" ?
result: 16.5 µM (active)

query: Param item: "O=c1c2ccccc2nnn1COc1cccc(Cl)c1"
result: 13.1 µM (active)

query: Moving on to the next molecule: "O=C(Cc1ccc2c(c1)CCCC2)Nc1ccc2ccccc2c1"
result: 13.1 µM (active)

query: // repeat for "Cc1ccccc1-c1nnc(SCC(=O)N2CCCC2)o1" and report
result: 7.36 µM (active)

query: # iterate: "Nc1c(-c2ccccc2)cnc2cc(-c3ccccc3)nn12"
result: 0.414 µM (active)

query: Subsequent entry: "CCCc1nn(C)c(C(=O)Nc2cccc(Cl)c2)c1Cl"
result: 7.36 µM (active)

query: What do you have for "CCCc1nn(C)c(C(=O)Nc2cccc(C)c2)c1Cl" ?
result: 5.21 µM (active)

query: Now the same for "CCOC(=O)c1cccnc1SCc1cc(=O)n2ccccc2n1"
result: 13.1 µM (active)

query: Now the molecule "Cc1ccc(Nc2nc(C)cs2)cc1"
result: 6.56 µM (active)

query: What do you get for "COc1ccc(NC(=O)/C=C/c2ccccc2)cn1" ?
result: 1.65 µM (active)

query: Could you do the same for "COc1ccc(/C=C/C(=O)Nc2ccccc2)cc1OC" , please?
result: 4.14 µM (active)

query: Try "O=C(OCc1nc2ccccc2s1)c1ccco1" next.
result: 7.36 µM (active)

query: Continue with "Cc1ccc(Nc2nc(-c3ccncc3)cs2)cc1"
result: 0.656 µM (active)

query: Then this molecule: "CCc1ccc(C(=O)NC(=S)Nc2ccc3c(c2)OCCO3)cc1"
result: 2.07 µM (active)

query: Further, for "CN(C)c1ccc(N=Nc2ccc(S(N)(=O)=O)cc2)cc1" ?
result: 1.17 µM (active)

query: Next molecule: "Nc1ccc(C(=O)OCc2nc3ccccc3s2)cc1"
result: 16.5 µM (active)
